Target: kinases (Homo sapiens, UniProt P10721, V559D)
Construct: purchased Eurofins/DiscoveRx; host or cells: E. coli BL21-derived host (T7 phage display) for most kinases; HEK-293 for the rest
Sequence (P10721 26-976 V559D): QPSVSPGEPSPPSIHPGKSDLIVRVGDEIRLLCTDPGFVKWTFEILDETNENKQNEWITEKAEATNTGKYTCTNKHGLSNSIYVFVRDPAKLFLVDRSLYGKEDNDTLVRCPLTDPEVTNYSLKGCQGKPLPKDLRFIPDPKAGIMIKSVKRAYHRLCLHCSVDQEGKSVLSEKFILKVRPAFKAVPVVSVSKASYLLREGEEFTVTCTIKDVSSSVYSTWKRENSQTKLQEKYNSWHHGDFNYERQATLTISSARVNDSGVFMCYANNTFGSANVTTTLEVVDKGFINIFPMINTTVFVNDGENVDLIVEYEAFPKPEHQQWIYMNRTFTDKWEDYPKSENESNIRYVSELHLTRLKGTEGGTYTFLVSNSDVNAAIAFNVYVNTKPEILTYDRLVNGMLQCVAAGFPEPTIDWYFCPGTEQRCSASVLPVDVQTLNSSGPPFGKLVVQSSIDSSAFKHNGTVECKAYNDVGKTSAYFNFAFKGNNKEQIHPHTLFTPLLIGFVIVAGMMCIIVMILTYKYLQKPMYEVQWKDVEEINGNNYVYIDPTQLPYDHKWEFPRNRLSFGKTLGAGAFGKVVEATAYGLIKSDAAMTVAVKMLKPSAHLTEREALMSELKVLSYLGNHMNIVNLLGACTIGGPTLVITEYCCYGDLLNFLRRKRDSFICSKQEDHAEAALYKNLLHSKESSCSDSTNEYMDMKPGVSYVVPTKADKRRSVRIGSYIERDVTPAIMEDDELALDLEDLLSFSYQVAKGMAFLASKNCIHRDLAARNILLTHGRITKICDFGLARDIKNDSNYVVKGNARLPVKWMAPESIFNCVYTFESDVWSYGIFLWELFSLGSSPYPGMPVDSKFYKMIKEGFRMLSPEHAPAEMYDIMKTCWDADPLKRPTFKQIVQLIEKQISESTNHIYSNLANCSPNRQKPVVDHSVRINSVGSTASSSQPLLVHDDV
Assay: KINOMEscan kinase binding assay (Eurofins/DiscoveRx), % Ctrl
Details: 1 μM; KIT(V559D)
ENDPOINT LABEL: % Ctrl, KIT(V559D) (% Ctrl)

In [3]: df
Out[3]:
                               query_smiles  value_measured
0  Cc1cc2c([nH]1)/C=C1\C(=O)Nc3cc(Cl)c(cc31)OCCOCCN(C)C2=O            0.15
1  Cc1cc2c([nH]1)/C=C1\C(=O)Nc3cc(Cl)c(cc31)OCCO[C@@H](C(=O)N(C)C)CN(C)C2=O              75
2  Cc1cc2c([nH]1)/C=C1\C(=O)Nc3cnc(cc31)-c1cnn(C)c1COCCNC2=O              99

1. Cc1cc2c([nH]1)/C=C1\C(=O)Nc3cc(Cl)c(cc31)OCCO[C@@H](C(=O)NC1CCNCC1)CN(C)C2=O
2. Cc1cc2c([nH]1)/C=C1\C(=O)Nc3ccc(cc31)-c1ccnn1CCOCCNC2=O
3. Cc1cc2c([nH]1)/C=C1\C(=O)Nc3ccc(cc31)OCCOCCN(C)C2=O
4. Cc1cc2c([nH]1)/C=C1\C(=O)Nc3ccc(cc31)-c1cnn(C)c1CN(C)CCN(C)C2=O
Which order do these items take when sorted by rising % Ctrl, KIT(V559D)? List them. Provide your answer as the labels ordered per the instruction.
4, 1, 3, 2

* * *

Target: kinases (Homo sapiens, UniProt P00533, T790M)
Construct: purchased Eurofins/DiscoveRx; host or cells: E. coli BL21-derived host (T7 phage display) for most kinases; HEK-293 for the rest
Test: KINOMEscan kinase binding assay (Eurofins/DiscoveRx), % Ctrl
Settings: 1 μM; EGFR(T790M)
Procedure: Kinase binding assays were performed at Eurofins/DiscoveRx using the general KINOMEscan Protocol (Fabian, M. A. et al., “A small molecule-kinase interaction map for clinical kinase inhibitors,” Nat. Biotechnol. 2005, 23(3):329-36). For most assays, kinase-tagged T7 phage strains were prepared in an E. coli host derived from the BL21 strain. […] The kinase concentration in the eluates was measured by qPCR. […]
ENDPOINT LABEL: % Ctrl, EGFR(T790M) (% Ctrl)

The examples below pair each entry with its known result.
In [3]: df
Out[3]:
                               query_smiles  units_symbol  value_measured
0  Cc1cc2c([nH]1)/C=C1\C(=O)Nc3ccc(cc31)OCCOCCNC2=O        % Ctrl             100
1  CNC(=O)[C@H]1CN(C)C(=O)c2cc(C)[nH]c2/C=C2\C(=O)Nc3cc(Cl)c(cc32)OCCO1        % Ctrl              94
2  Cc1cc2c([nH]1)/C=C1\C(=O)Nc3cc(Cl)c(cc31)OCCO[C@@H](C(=O)NC1CCNCC1)CN(C)C2=O        % Ctrl              92
3  Cc1cc2c([nH]1)/C=C1\C(=O)Nc3cc(Cl)c(cc31)OCCO[C@@H](C(=O)N(C)C)CN(C)C2=O        % Ctrl              94
4  Cc1cc2c([nH]1)/C=C1\C(=O)Nc3ccc(cc31)-c1ccnn1CCNCCNC2=O        % Ctrl             100
5  Cc1cc2c([nH]1)/C=C1\C(=O)Nc3cnc(cc31)-c1cnn(C)c1COCCNC2=O        % Ctrl             100

P. Cc1cc2c([nH]1)/C=C1\C(=O)Nc3ccc(cc31)O[C@@H](C)COCCN(C)C2=O
Q. Cc1cc2c([nH]1)/C=C1\C(=O)Nc3ccc(cc31)CN(C)C(=O)COCCNC2=O
Between P and Q , which one has the lower reported % Ctrl, EGFR(T790M) value? Which one? Tell me its label.
Q
(Q: 68 % Ctrl, P: 100 % Ctrl)
